Origin of measurements: patent US11084800B2

Listed below: pIC50 values for each entry.
# assay.target: Human Factor D (Homo sapiens (Human), UniProt P00746)
# Sequence (P00746 26-253): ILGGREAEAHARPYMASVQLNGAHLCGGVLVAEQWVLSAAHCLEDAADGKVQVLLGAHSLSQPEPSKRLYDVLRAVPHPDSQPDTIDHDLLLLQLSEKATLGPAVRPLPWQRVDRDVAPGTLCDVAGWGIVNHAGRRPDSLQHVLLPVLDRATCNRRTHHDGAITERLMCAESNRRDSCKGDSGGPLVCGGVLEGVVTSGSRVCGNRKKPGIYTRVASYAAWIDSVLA
# assay.comment: Human Factor D Assay
# Assay type: biochemical
# reported.conditions: Factor D inhibition, assay of Example 10; read-out: IC5 (Stars)
pIC50: −log10 of the molar value.
reported.endpoint: pIC50

* CC(=O)c1nn(CC(=O)N2[C@H](C(=O)NCCN3CCOCC3)C[C@@]3(C)C[C@@H]23)c2c(C)cc(-c3cnc(C)nc3)cc12 | 5.00 to 6.00
* CC(=O)c1nn(CC(=O)N2[C@H](C(=O)NCCC(=O)O)C[C@@]3(C)C[C@@H]23)c2c(C)cc(-c3cnc(C)nc3)cc12 | > 6.00
* CCCNC(=O)c1nn(CC(=O)N2[C@H](C(=O)NCCC)C[C@@]3(C)C[C@@H]23)c2ccc(-c3cnc(C)nc3)cc12 | 5.00 to 6.00
* CC(=O)c1nn(CC(=O)N2[C@H](C(=O)NC/C(F)=C(/C)c3ccccc3)C[C@@]3(C)C[C@@H]23)c2ccc(-c3cnc(C)nc3)cc12 | > 6.00
* CCCCc1cc(Br)nc(NC(=O)[C@@H]2C[C@@]3(C)C[C@H]3N2C(=O)Cn2nc(C(C)=O)c3cc(-c4cnc(C)nc4)ccc32)c1 | > 6.00
* CNC(=O)[C@@H]1C[C@@]2(C)C[C@H]2N1C(=O)Cn1nc(C(C)=O)c2cc(-c3cnc(C)nc3)cc(C)c21 | > 6.00
* Cc1ncc(-c2cc3c(C(N)=O)nn(CC(=O)N4[C@H](C(=O)Nc5nc(Br)c(F)cc5C)C[C@@]5(C)C[C@@H]45)c3c(C)n2)cn1 | > 6.00
* CC(=O)c1nn(CC(=O)N2C[C@H]3C[C@H]3[C@H]2C(=O)NCc2cccc(Cl)c2F)c2c(C)nc(-c3cnc(C)nc3)cc12 | > 6.00
* CC(=O)c1nn(CC(=O)N2[C@H](C(=O)N[C@@H](C)c3cccc(Cl)c3)C[C@@]3(C)C[C@@H]23)c2ccc(-c3cnc(C)nc3)cc12 | > 6.00
* CC(=O)c1nn(CC(=O)N2[C@H](C(=O)N[C@@H](C)COC(F)(F)F)C[C@@]3(C)C[C@@H]23)c2ccc(-c3cnc(C)nc3)cc12 | > 6.00
* CC(=O)c1nn(CC(=O)N2C[C@H](F)C[C@H]2C(=O)Nc2cccc(I)n2)c2ccc(-c3cnc(C)nc3)cc12 | > 6.00
* CC(=O)c1nn(CC(=O)N2[C@H](C(=O)Nc3cc(Br)ncc3F)C[C@@]3(C)C[C@@H]23)c2cnc(-c3cnc(C)nc3)cc12 | 5.00 to 6.00
* CC(=O)c1nn(CC(=O)N2[C@H](C(=O)NCCCN(C)C)C[C@@]3(C)C[C@@H]23)c2ccc(-c3cnc(C)nc3)cc12 | 5.00 to 6.00
* CNCCCNC(=O)[C@@H]1C[C@@]2(C)C[C@H]2N1C(=O)Cn1nc(C(C)=O)c2cc(-c3cnc(C)nc3)ccc21 | 5.00 to 6.00
